METHOD NOTES: amyloid nucleation score (Sup35N fusion, yeast selection) (log enrichment); library NNK1; higher = more nucleation; inactive = no reads after selection;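 note: zero at mode of non-aggregating sequences after 7 days selection at 30°C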
METRIC NAME: amyloid nucleation score
No unit in the answer, only the number.

// known answers, use as guide
In [3]: df
Out[3]:
   substance               metric_name  measured_value
0    HVDKFLG  amyloid nucleation score          -0.025
1     HFTIKF  amyloid nucleation score            1.06

Quick note, amyloid nucleation score for LSGERNVMCSVWACLGRDYR landed at 8.1

Quick note, amyloid nucleation score for ETTRNKAMNTFMLPFSQSCK landed at 0.39

Quick note, amyloid nucleation score for TGPDSISAYQHLFNCS landed at 1.64

Quick note, amyloid nucleation score for VSNNYRDV landed at 0.807

Quick note, amyloid nucleation score for RRAPLNLTREVSSVWEWRII landed at -0.631

====

METHOD NOTES: amyloid nucleation score (Sup35N fusion, yeast selection) (log enrichment); library NNK3; higher = more nucleation; inactive = no reads after selection
METRIC NAME: amyloid nucleation score

// known answers, use as guide
>>> print(df.to_string())
              substance  measured_value
0  LSRYSRSTIILEHWCDTDWY           0.812
1  PHGNVLVLYDKRVLSCVEWN           0.428
2  RGVYNEHFCCGFSMWEPING             2.3
3  LVVVECSSLMRADLCSTQVM        inactive

Let us examine a further case.
Quick note, amyloid nucleation score for CLVTLVLTKFWCMCASSAVD landed at inactive

====

METHOD NOTES: amyloid nucleation score (Sup35N fusion, yeast selection) (log enrichment); library NNK3; higher = more nucleation; inactive = no reads after selection
METRIC NAME: amyloid nucleation score

// known answers, use as guide
              substance  measured_value
0             GGEGLVRQA        inactive
1  FHKKMCTWIDELVIAVQFRD        inactive
2  CSLLGKMLTYNSDYGFQLNY        inactive
3              SRVGGISC        inactive
4   YLIYDRLSIQPDSSHHLVV          -0.124

Quick note, amyloid nucleation score for GCKRVVTTV landed at -0.606

Quick note, amyloid nucleation score for RYNGTGIKYWKTY landed at inactive

Quick note, amyloid nucleation score for GVGGPDGCTGNDTFMRQYTN landed at inactive

Quick note, amyloid nucleation score for IIMLTFQVNVTFASVWRTRS landed at inactive

Quick note, amyloid nucleation score for NYHTFSYCI landed at inactive

Quick note, amyloid nucleation score for IWPNRHGLKNVLRDQREATL landed at inactive

Quick note, amyloid nucleation score for IPFLDKGYGR landed at inactive

Quick note, amyloid nucleation score for DWTRFPSAFTGVQKSLVD landed at inactive

Quick note, amyloid nucleation score for CCIIYVVRRGE landed at 1.28

Quick note, amyloid nucleation score for ILSLSQMNT landed at inactive

Quick note, amyloid nucleation score for GNSSII landed at inactive

Quick note, amyloid nucleation score for SSLPRPLVFRSLFVWREYIQ landed at -0.06

Quick note, amyloid nucleation score for SVIYIWDG landed at 0.425

Quick note, amyloid nucleation score for AFGYKFGSANEAVRMLLSLV landed at inactive

Quick note, amyloid nucleation score for SRCPMADCMRKPRGGCSVGR landed at inactive

Quick note, amyloid nucleation score for CNCPPPPSSRYYSFSKAVYG landed at inactive

Quick note, amyloid nucleation score for YYLCYLSVHLSMIGCKEKGR landed at inactive

====

Here, each record is paired with measured amyloid nucleation score data.
METHOD NOTES: amyloid nucleation score (Sup35N fusion, yeast selection) (log enrichment); library NNK2; higher = more nucleation; inactive = no reads after selection
No unit in the answer, only the number.

In [3]: df
Out[3]:
         residue_string               metric_name  measured_value
0  NPLQRTVYWFIIKRDCFHSV  amyloid nucleation score           -1.46
1  RPFLSTEKRSILMCRVVKGM  amyloid nucleation score          -0.254
2  DVRPDLNDKSRTVDSDVLLC  amyloid nucleation score          -0.846
3  YTEQVYVYLGFLSHGASRYL  amyloid nucleation score          -0.716

Let us examine a further case.
Quick note, amyloid nucleation score for VWLNSHFLMGRI landed at -1.46

====

METHOD NOTES: amyloid nucleation score (Sup35N fusion, yeast selection) (log enrichment); library NNK2; higher = more nucleation; inactive = no reads after selection
METRIC NAME: amyloid nucleation score
No unit in the answer, only the number.

   substance  measured_value
0     YGFPDF           -1.12
1  STDYMGPAY          -0.617

Quick note, amyloid nucleation score for VNNYWNDSCARSLNMGRTGR landed at 0.791

Quick note, amyloid nucleation score for LLMFRVRVDELWHGAARHMG landed at 1.64

Quick note, amyloid nucleation score for RHVCYGGQYLVANHSGM landed at -0.267

Quick note, amyloid nucleation score for MMGVCF landed at -0.916

Quick note, amyloid nucleation score for TFAPDLS landed at -0.053

Quick note, amyloid nucleation score for WSWLRICIS landed at 0.549

Quick note, amyloid nucleation score for ERMFNMIALVRRAGGERNRT landed at 4.43

====

METHOD NOTES: amyloid nucleation score (Sup35N fusion, yeast selection) (log enrichment); library NNK3; higher = more nucleation; inactive = no reads after selection
METRIC NAME: amyloid nucleation score

              substance               metric_name  measured_value
0  SIFIYDVPIVSRWRIFGKQS  amyloid nucleation score        inactive
1               CGNTSIV  amyloid nucleation score        inactive
2                IMRLHC  amyloid nucleation score        inactive
3  YVHWLGSALREGDWVLPSAL  amyloid nucleation score        inactive

====

METHOD NOTES: amyloid nucleation score (Sup35N fusion, yeast selection) (log enrichment); library NNK3; higher = more nucleation; inactive = no reads after selection
METRIC NAME: amyloid nucleation score

>>> print(df.to_string())
              substance               metric_name  measured_value
0  GFMGFVTSHVKMTGNMCNEI  amyloid nucleation score        inactive
1  RMRDRSGMGRTFHHGTQTTV  amyloid nucleation score        inactive
2  LDCLLFKKCFVVRGLNDYSE  amyloid nucleation score        inactive
3  YKNEMGTIPCRRVTSNCLSY  amyloid nucleation score        inactive
4  TRRGSDLPSVLAMFLSKSTR  amyloid nucleation score        inactive

Quick note, amyloid nucleation score for IMKCICVYVFINCHKWDVHA landed at inactive

Quick note, amyloid nucleation score for SAFNEFFF landed at inactive

====

METHOD NOTES: amyloid nucleation score (Sup35N fusion, yeast selection) (log enrichment); library NNK3; higher = more nucleation; inactive = no reads after selection
METRIC NAME: amyloid nucleation score

>>> print(df.to_string())
              substance  measured_value
0  LKSMLLSMRSIIEYCQQMVG        inactive
1  VSLQLLWNPMLSYFTFQVGR            1.16
2               EMNSTFW        inactive
3  RNCNETLNIVETGNSISANV        inactive

Quick note, amyloid nucleation score for YSKCNRIFFTEDLF landed at -0.295

Quick note, amyloid nucleation score for IFWICWLGFVNCVYTAEIPT landed at inactive

====

METHOD NOTES: amyloid nucleation score (Sup35N fusion, yeast selection) (log enrichment); library NNK3; higher = more nucleation; inactive = no reads after selection
METRIC NAME: amyloid nucleation score

// known answers, use as guide
         residue_string  measured_value
0     VSYTYAGYSIRYIVFSS        inactive
1  PAGWGWSCCFDFLSSISKIY        inactive
2  VSYLVCIDWVCPSGQWNAFW            1.52
3           RRSTYLIVFVG        inactive
4  RGWDVWAVHSEFYCLKKLIV        inactive

Quick note, amyloid nucleation score for TIFSIDFIIVYT landed at 1.81

Quick note, amyloid nucleation score for YYFRRVWTCPLIAQIIKSDL landed at 0.39

Quick note, amyloid nucleation score for KFGSLWRSNESDSSNSALRY landed at inactive

Quick note, amyloid nucleation score for VVVLYFVSHWTNRMSYSTRL landed at inactive

====

METHOD NOTES: amyloid nucleation score (Sup35N fusion, yeast selection) (log enrichment); library NNK2; higher = more nucleation; inactive = no reads after selection
METRIC NAME: amyloid nucleation score

         residue_string  measured_value
0  FVSMNAGVYVGHRGHIMEFI        inactive
1   SYYFGPHWRVYTAFARFRI        inactive
2  GLRNDGAEVINSQPFLAHMC           0.497

The values you see were collected from the supplement of paper PMC12042874.
